# tgt: recombinant human BACE1 (Homo sapiens, UniProt P56817)
# Construct: purchased R&D Systems
# Sequence (P56817 46-501): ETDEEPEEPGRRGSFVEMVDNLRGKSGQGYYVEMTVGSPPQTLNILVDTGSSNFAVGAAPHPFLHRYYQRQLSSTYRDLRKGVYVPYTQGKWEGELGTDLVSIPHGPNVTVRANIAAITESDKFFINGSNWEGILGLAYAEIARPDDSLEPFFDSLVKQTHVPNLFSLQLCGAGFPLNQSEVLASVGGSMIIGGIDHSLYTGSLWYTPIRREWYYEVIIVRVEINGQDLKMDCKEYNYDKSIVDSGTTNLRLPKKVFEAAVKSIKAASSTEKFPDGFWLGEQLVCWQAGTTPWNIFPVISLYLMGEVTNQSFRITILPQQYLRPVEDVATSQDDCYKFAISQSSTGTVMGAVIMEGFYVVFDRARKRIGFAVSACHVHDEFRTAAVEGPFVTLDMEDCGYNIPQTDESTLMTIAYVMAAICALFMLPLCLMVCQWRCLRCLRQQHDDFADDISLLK
# protocol-description: BACE1 biochemical enzymatic assay (HTRF, APP-derived Swedish-mutation peptide substrate)
# protocol-conditions: HTRF, 2 h at 25 °C, APP-derived peptide substrate
experimental-endpoint: IC50 (nM)
One number for each entry, in nM.

Lookup: Return reported IC50; argument: C[C@H]1OC[C@]2(c3cc(NC(=O)c4cnc(C(F)F)cn4)ccc3F)N=C(N)SC[C@H]12 [Elenbecestat, elenbecestat]
Found: 3.9

====

# tgt: recombinant human BACE2 ectodomain (Homo sapiens, UniProt Q9Y5Z0)
# Sequence (Q9Y5Z0 63-473 limits assumed): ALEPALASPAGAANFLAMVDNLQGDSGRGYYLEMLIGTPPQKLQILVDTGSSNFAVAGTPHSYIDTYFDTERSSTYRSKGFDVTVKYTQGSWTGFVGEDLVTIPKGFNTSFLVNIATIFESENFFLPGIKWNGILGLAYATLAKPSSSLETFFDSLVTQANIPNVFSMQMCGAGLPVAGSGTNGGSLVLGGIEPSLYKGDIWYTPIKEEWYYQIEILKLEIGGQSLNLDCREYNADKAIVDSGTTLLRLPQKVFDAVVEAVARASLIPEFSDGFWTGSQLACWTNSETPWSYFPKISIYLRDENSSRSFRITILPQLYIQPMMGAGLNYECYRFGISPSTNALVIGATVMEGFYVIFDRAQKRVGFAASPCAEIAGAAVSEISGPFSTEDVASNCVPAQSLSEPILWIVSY
# protocol-description: BACE2 biochemical enzymatic assay (ELISA-based, APP-derived Swedish-mutation peptide substrate)
# protocol-conditions: 1 h at 37 °C
experimental-endpoint: IC50 (nM)
One number for each entry, in nM.

Lookup: Return reported IC50; argument: `C[C@H]1OC[C@]2(c3cc(NC(=O)c4cnc(C(F)F)cn4)ccc3F)N=C(N)SC[C@H]12`
Found: 46

Ref: paper PMC10418759
